inhibition: recorded values
System: Ribosomal RNA A-site
MEASUREMENT NOTES: Displacement of F-NEO from human cytosolic rRNA-A site after 10 to 20 mins by fluorescence assay relative to NEO
Type: nucleic-acid assay
Parameters: concentration or dose not given beside the values
I only need the number, in %, no unit after it.

NC[C@@H]1O[C@H](O[C@H]2[C@@H](O)[C@H](O[C@@H]3[C@@H](O)[C@H](N)C[C@H](N)[C@H]3O[C@H]3O[C@H](CN)[C@@H](O)[C@H](O)[C@H]3N)O[C@@H]2CSCCNC(=S)NCCCCCCNC(=O)CCCc2ccc3ccc4cccc5ccc2c3c45)[C@H](N)[C@@H](O)[C@@H]1O	75

Please report inhibition for the following molecule: NC[C@@H]1O[C@H](O[C@H]2[C@@H](O)[C@H](O[C@@H]3[C@@H](O)[C@H](N)C[C@H](N)[C@H]3O[C@H]3O[C@H](CN)[C@@H](O)[C@H](O)[C@H]3N)O[C@@H]2CNC(=O)CCCc2ccc3ccc4cccc5ccc2c3c45)[C@H](N)[C@@H](O)[C@@H]1O 99

Value source: ChEMBL document CHEMBL4330087
